Some sequences, each annotated with its measured apparent KD of K4 kissing-loop reporter.
Test system: K4 kissing-loop RNA reporter;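 further: bound reporter read as fluorescence of individual clusters on recovered sequencing chips by microscopy, with normalized cluster intensities fitted with a binding model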
Test: apparent KD of K4 kissing-loop reporter; higher = weaker reporter binding
Settings: Eterna round: R107; input ligand: theophylline 20 uM
quantity_name: apparent KD of K4 kissing-loop reporter

1) GCCGCAAGGCUAGCAGCAAUAGGCGCUCGCUAGGAUAUCUGGAAACAGAGAAGGAGCUGGAGUGAUGUUUUACCUCCUUGUUAUU: 814 nM
2) GGAGAGAACUGAAGGAGCGGCAAGAGAGAAGGAAAUAUAGUGAUGUUAUAUAAGAGAGAGAGCCAGGUAGGUCGCAGAGGGAGGA [ExArgB.A]: 164 nM
3) UCGGUAUAGUGAUGUUAUAUAGAGAGUGAUACCAGUUUAGAGAGAAACCCUUGGCAGCAUAGAAGAGUAUCAUUGGAGGAGGAGG [#20 K4 Theophylline A Exclusion]: 336 nM
4) GGAAGAAGUGGUGUUGAUUAAGAAGCGGAAGGAGCGCCGAAGAAGGCAGGUAGGUCGCCGAAAUAUAGUGAUGUUAUAUAAAAGG [ExArg.A]: 168 nM
5) GAAACGUUGCGGACUAUCGCAUAAAGUCACCGAGGACCGGUACGGCCGCCACUCGCCAGUGAUGUUGGCGUGUUUGCGCGCUGUG [Titebebi]: 101 nM
6) UCGAAAUGCGUCUCCUAGUUACUCCGGGAAGGAGCGUGGAUAACCGCAGGUAGGUCGCCCGGAAGCCGGACCAGUGAUGUUGGUC [Exclusion Arginine A Gf 29]: 186 nM
7) ACGUCUUGUAAACUCGUGGUUUCGAUCGAUACCAGUAGCGAGAGUUACCCUUGGCAGCGACAUGAGUGAUGUUCAUGUACGAAGA [KL-XTheoA3]: 89 nM
8) AAACGUUGGUGCGAUACCAGCUGAUCGGAAACGAUCUUGCUGGAGUGAUGUUCCAAGUAAAGCCCUUGGCAGCGCACCGACGAAA [MAT - Same State Theophlline B - Mod of Eli - D22]: 145 nM
9) UUUCGUUGAAGUGAUACCAGACUUGAAAGUGAUGUUUUCCAAUAAUUUAAAUUUUUAGCUGUCCCUUGGCAGCACAGUUUAUUUA [JR_Nu_ExcTheophyB_Sub025]: 401 nM
10) ACAGGAUCGAAAGAUCCUGAGCAGUCAAACCGAGGACCGGUACGGCCGCCACUCGGAGUGAUGUUCCGAAGACUGCAAAAUAAAA [#SwitchBubble 1]: 406 nM
11) UUCCACCGAGAAGGAUAUUAUGCUGGACUUGUUUAAGUGUUAAAUAGUGAUGUUAUUUGAUCGGAAUAAGAAGGUCUCAAGUUGA [theeternabot_sameState_KL_FMN_B_44]: 142 nM
12) AGUGAUGUUGUGUUAUGUUAGGGAAGUGAUCGAGGACCGGUACGGCCGCCACUCGAGUGAUGAGUGAGUGAUGUUUGUUUAGGGA [yytmullin]: 1070 nM
13) CGGAUGUAGUGAUGUUAUAUUAGAUGUAGACGAGGACCGGUACGGCCGCCACUCGUGAUGGCUGCUAGCGCGUUGCGAGGUUUGC [ExTryptoA.Co]: 633 nM
14) UCCUGCAAUCUGCCACGAAAGUGGGUUGAUACCAGAGUCGAAAGACUCCCUUGGCAGCGAGUGAUGUUCGUUGCAGGUGAAUAAA [MatMod 9 - Jieux - Exclusion - Theophylline A]: 309 nM
15) UUGUUUGGUUGAGAGGUUGGGCGAGAUGAUACCAGUAGAGAAGAGUACCCUUGGCAGCAUAGGAAAGAUAUAGUGAUGUUGUAUA [SSTheophA.Q]: 165 nM
16) CGUGCCCGGCCGGAUACCAGUGACCCGCUGGGAACCGCGGGCCCAGAGUGAUGUUCGGGACACCCUUGGCAGCCGCCUGGGCGGC [#2 Same State - Theophylline B Attempt #13 (HarryS)]: 614 nM
17) AUAGGAGUGAUGUUCCUUAGUUUCUCCGAUACCAGUAUGGAAACAUACCCUUGGCAGCGGGAAACCGCUGAUUAGGAAACUAGUC [Theophylline A K4 7]: 242 nM
18) GGGUCAGUCUGAAGGAGCGGCCAGACAGAGCAGUGAUGUUGCUCCUCCGGAAACGGUGUCGGCCAGGUAGGUCGCAGAUUGGCUC [Dienralais mod v1]: 126 nM
19) AAACGCUGUGAAUAACACAGCGAAAAUUCGCGAGGACCGGUACGGCCGCCACUCGCUAACUGCGAGUGAUGUUCGAUAAUAAAAU [Mat - Mod of OpenEnded 3 - D11]: 210 nM
20) AUUAUAUUGUGAAGGAGCGCGAAUAGCAGUGAUGUUGCUAUCAAACGAUAUAUUAUUUACACGCAGGUAGGUCGCACAAUAUAUA [JR_Nu_SSArginiB_Sub022]: 124 nM
21) AGGCCCGGCCGAAAGGCCGGGCCAAGAGAUACCAGCAGCGAAAGCUGCCCUUGGCAGCUCACUUAGUGAUGUUAAGAAUAGAACA [SS Theo A Tesla 1]: 485 nM
22) CGAGUGAUGUUCGUUUAUUACUCUGUUUGACAGGAUAUGCGGAAACGCAGAAGGGUCACCUUUGAGUUAGACGGAGUUAUUUUUU [Ex FMN A 22]: 355 nM
23) CCAGGAUGAUGAGGAUGAUGAAUUACUGAAGGAGCGCAUAUGGUUGCAGGUAGGUCGCGGUGAAUAAGUAUAGUGAUGUUAUGCC [SSArgA.X]: 448 nM
